Listed below: shrunken log2 fold change values for each entry.
tested on: Escherichia coli TOP10; assay: shrunken log2 fold change of peptide-encoding DNA abundance (4.5 h post-induction vs induction); higher = less antimicrobial activity (less host growth inhibition); details: time post-induction: 4.5 h; library: site-saturation at positions 5, 18, 19, 20;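 further: peptides expressed intracellularly from a pBAD plasmid library in pooled LB shake-flask culture, induced with 0.3% L-arabinose, DNA abundance read by NGS, three biological replicates, DESeq2 with apeglm shrinkage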

>  <querySequence>
RRIRHRPPRLPRPRPRPVQFPRP

>  <shrunken log2 fold change>
-0.335

$$$$
>  <querySequence>
RRIRWRPPRLPRPRPRPDTWPRP

>  <shrunken log2 fold change>
0.0829

$$$$
>  <querySequence>
RRIRIRPPRLPRPRPRPPVLPRP

>  <shrunken log2 fold change>
0.328

$$$$
>  <querySequence>
RRIRVRPPRLPRPRPRPLSGPRP

>  <shrunken log2 fold change>
0.179

$$$$
>  <querySequence>
RRIRGRPPRLPRPRPRPNVGPRP

>  <shrunken log2 fold change>
0.125

$$$$
>  <querySequence>
RRIRVRPPRLPRPRPRPINDPRP

>  <shrunken log2 fold change>
0.0664

$$$$
>  <querySequence>
RRIRKRPPRLPRPRPRPVNLPRP

>  <shrunken log2 fold change>
-0.0889

$$$$
>  <querySequence>
RRIRGRPPRLPRPRPRPGLFPRP

>  <shrunken log2 fold change>
1.01

$$$$
>  <querySequence>
RRIRDRPPRLPRPRPRPDNRPRP

>  <shrunken log2 fold change>
0.147

$$$$
>  <querySequence>
RRIRFRPPRLPRPRPRPSHYPRP

>  <shrunken log2 fold change>
-0.762

$$$$
>  <querySequence>
RRIRYRPPRLPRPRPRPPYWPRP

>  <shrunken log2 fold change>
-0.22

$$$$
>  <querySequence>
RRIRNRPPRLPRPRPRPKCQPRP

>  <shrunken log2 fold change>
0.0753

$$$$
>  <querySequence>
RRIRERPPRLPRPRPRPIEEPRP

>  <shrunken log2 fold change>
-0.0104

$$$$
>  <querySequence>
RRIRLRPPRLPRPRPRPVIPPRP

>  <shrunken log2 fold change>
-0.0331

$$$$
>  <querySequence>
RRIRDRPPRLPRPRPRPQVLPRP

>  <shrunken log2 fold change>
-0.178

$$$$
>  <querySequence>
RRIRCRPPRLPRPRPRPNNYPRP

>  <shrunken log2 fold change>
-0.81

$$$$
>  <querySequence>
RRIRQRPPRLPRPRPRPWIGPRP

>  <shrunken log2 fold change>
-0.013

$$$$
>  <querySequence>
RRIRRRPPRLPRPRPRPAMMPRP

>  <shrunken log2 fold change>
0.163

$$$$
>  <querySequence>
RRIRYRPPRLPRPRPRPSCNPRP

>  <shrunken log2 fold change>
-1.43

$$$$
>  <querySequence>
RRIRPRPPRLPRPRPRPHEPPRP

>  <shrunken log2 fold change>
0.239

$$$$
>  <querySequence>
RRIRHRPPRLPRPRPRPQDMPRP

>  <shrunken log2 fold change>
-0.129

$$$$
>  <querySequence>
RRIRNRPPRLPRPRPRPEKIPRP

>  <shrunken log2 fold change>
-0.0207

$$$$
>  <querySequence>
RRIRARPPRLPRPRPRPPSCPRP

>  <shrunken log2 fold change>
0.503

$$$$
>  <querySequence>
RRIRFRPPRLPRPRPRPFLEPRP

>  <shrunken log2 fold change>
-0.355

$$$$
>  <querySequence>
RRIRIRPPRLPRPRPRPTPTPRP

>  <shrunken log2 fold change>
0.387

$$$$
>  <querySequence>
RRIRSRPPRLPRPRPRPGVFPRP

>  <shrunken log2 fold change>
0.146

$$$$
>  <querySequence>
RRIRGRPPRLPRPRPRPIQGPRP

>  <shrunken log2 fold change>
-0.0132

$$$$
>  <querySequence>
RRIRIRPPRLPRPRPRPEMFPRP

>  <shrunken log2 fold change>
0.0821

$$$$
>  <querySequence>
RRIRARPPRLPRPRPRPWRHPRP

>  <shrunken log2 fold change>
0.333

$$$$
>  <querySequence>
RRIRPRPPRLPRPRPRPDWLPRP

>  <shrunken log2 fold change>
0.288

$$$$
>  <querySequence>
RRIRWRPPRLPRPRPRPKKEPRP

>  <shrunken log2 fold change>
-0.224

$$$$
>  <querySequence>
RRIRTRPPRLPRPRPRPYAFPRP

>  <shrunken log2 fold change>
-0.17

$$$$
>  <querySequence>
RRIRVRPPRLPRPRPRPPTLPRP

>  <shrunken log2 fold change>
0.252

$$$$
>  <querySequence>
RRIRSRPPRLPRPRPRPKDMPRP

>  <shrunken log2 fold change>
-0.123

$$$$

The measurements presented in this section are drawn from the supplement of paper PMC9112550.
